These measurements were taken from paper PMC8908504.

Can you tell me chromatographic logD for the items I'm about to list?
Assay: log D7.4 estimation by HPLC-based method
Format: physicochemical
Conditions: HPLC, Phenomenex Luna 5 μm Phenyl-Hexyl column, pH 7.4, estimated by HPLC-based method, pH 7.4; read-out: log D7.4
Description: The log D7.4 values were estimated using a common HPLC-based method in accordance with guideline OPPTS 830.7570 of the United States Environmental Protection Agency (EPA). […] The reference mixture was measured before and after the substances to be tested. […] The substances to be tested were injected as a solution in methanol (2 mg/mL), and the retention time was determined as the mean value from two measurements.
I only need the number, thanks.

Input: If you can, please state the reported chromatographic logD value of Cc1cc(N2CCOCC2)nc(N2CCOCC2)c1CNC(=O)Cc1cc(F)cc(F)c1 [55b] .
Output: 3.5

Input: If you can, please state the reported chromatographic logD value of CCCNC(=O)c1ccc(NCc2ccc(F)cc2)cc1CC.Cl .
Output: 3.2

Input: If you can, please state the reported chromatographic logD value of Cc1cc(NCc2ccc(F)cc2)nc(N2CCOCC2)c1CNC(=O)OCC(C)C .
Output: 4.8

Input: If you can, please state the reported chromatographic logD value of COc1cc(NCc2ccc(F)cc2)ccc1C(=O)NCc1ccc(F)cc1 [28b] .
Output: 4.3

Input: If you can, please state the reported chromatographic logD value of CCOC(=O)Nc1ccc(NCc2ccc(F)cc2)nc1N [compound 1, flupirtine, reference compound] .
Output: 2.1

Input: If you can, please state the reported chromatographic logD value of COc1nc(NCc2ccc(F)cc2)cc(C)c1C(=O)NCc1ccc(F)cc1 [36b] .
Output: 4.1

Input: If you can, please state the reported chromatographic logD value of CCCCNC(=O)c1c(C)cc(NCc2ccc(F)cc2)nc1OC [36a] .
Output: 3.7

Input: If you can, please state the reported chromatographic logD value of Cc1cc(N2CCOCC2)nc(N)c1CNC(=O)Cc1cc(F)cc(F)c1 .
Output: 2.6

Input: If you can, please state the reported chromatographic logD value of CCCCNC(=O)c1ccc(NCc2ccc(F)cc2)nc1N .
Output: 2.9
